Numbers sourced from patent US8178506B2.

System: Glut4
Test: Glut4 mRNA expression in adipocytes (real-time PCR)
Assay type: cell-based, human
Conditions: Table 17; differentiating adipocytes; control = treatment with ISIS 342673
Experimental: Expression of the four hallmark genes, HSL, aP2, Glut4, and PPARγ, is also measured in adipocytes transfected with oligomeric compounds of the invention. Cells are lysed on day nine post-transfection and total RNA is harvested. The amount of total RNA in each sample is determined using a Ribogreen Assay (Invitrogen Life Technologies, Carlsbad, Calif.). […]
In the oligonucleotide strings, read from the 5' end, every base follows the letter of its sugar. An asterisk marks phosphorothioate; unmarked linkages are phosphodiester. Other units and linkages are bracketed, terminal groups are in braces. A string of capitals states the bases alone. e = 2'-O-(2-methoxyethyl) (MOE); [5mC] = 5-methylcytosine
propertyName: GLUT4 mRNA

Known results for substances:
328135 (eA*e[5mC]*e[5mC]*eG*eA*eA*e[5mC]*eA*eA*eA*eG*eT*e[5mC]*eT*eG*eA*e[5mC]*eA*eG*eG*eA; anti-miR) [compound 328135] :: 90.3 percentage of control
328117 (antisense eT*e[5mC]*e[5mC]*eA*e[5mC]*eA*eA*eA*eG*e[5mC]*eT*eG*eA*eA*e[5mC]*eA*eT*eG*eT*e[5mC]*eT) [compound 328117] :: 68.1 percentage of control

Given the entry 328128 (antisense eA*eG*eT*eA*eA*e[5mC]*eT*eT*e[5mC]*eT*eT*eG*e[5mC]*eA*eG*eT*eT*eG*eG*eA) [compound 328128] , report its measured GLUT4 mRNA.
101.9 percentage of control

* * *

The entries below are paired with their reported PPAR gamma mRNA.
system: PPARγ; test: PPARγ mRNA expression in adipocytes (real-time PCR); type: cell-based, human; conditions: Table 18; differentiating adipocytes; control = treatment with ISIS 342673
In the oligonucleotide strings, read from the 5' end, every base follows the letter of its sugar. An asterisk marks phosphorothioate; unmarked linkages are phosphodiester. Other units and linkages are bracketed, terminal groups are in braces. A string of capitals states the bases alone. e = 2'-O-(2-methoxyethyl) (MOE); [5mC] = 5-methylcytosine; d = 2'-deoxy (DNA)

Known results for substances:
341804 (antisense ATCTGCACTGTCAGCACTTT; all 2'-MOE, all phosphorothioate, methylation of C not given here) [compound 341804] :: 74.1 percentage of control
328106 (antisense eA*eT*eT*eG*eA*eT*eG*e[5mC]*eG*e[5mC]*e[5mC]*eA*eT*eT*eT*eG*eG*e[5mC]*e[5mC]*eT*eA) [compound 328106] :: 90.7 percentage of control
105990 (antisense AGCAAAAGATCAATCCGTTA; sugars from the 5' end e5 d10 e5, backbone and methylation of C not given here) [compound 105990] :: 60.1 percentage of control

Next substance, please.
Given the entry 328107 (antisense e[5mC]*eT*eG*eT*eG*eA*e[5mC]*eT*eT*e[5mC]*eT*e[5mC]*eT*eA*eT*e[5mC]*eT*eG*e[5mC]*e[5mC]*eT) [compound 328107] , report its measured PPAR gamma mRNA.
79.3 percentage of control

* * *

test system: HeLa cells; assay: Cell cycle assay in HeLa cells; assay type: cell-based, human; conditions: HeLa cells, 50 nM, 48 hours
In the oligonucleotide strings, read from the 5' end, every base follows the letter of its sugar. An asterisk marks phosphorothioate; unmarked linkages are phosphodiester. Other units and linkages are bracketed, terminal groups are in braces. A string of capitals states the bases alone. e = 2'-O-(2-methoxyethyl) (MOE); [5mC] = 5-methylcytosine; d = 2'-deoxy (DNA)
The entries below are paired with their reported % cells in cell cycle phase: G2/M.
Show the value, then the unit it is measured in.

328383 (eA*eG*eA*eG*eG*dG*dG*dA*dG*dA*d[5mC]*dG*dA*dG*dA*eG*e[5mC]*eA*e[5mC]*eT) [compound 328383] :: 18%
327902 (antisense eG*eG*e[5mC]*eT*eG*eT*e[5mC]*eA*eA*eT*eT*e[5mC]*eA*eT*eA*eG*eG*eT*e[5mC]*eA*eG) [compound 327902] :: 20%
328403 (antisense eA*eG*eG*e[5mC]*e[5mC]*dT*dA*dT*dT*d[5mC]*d[5mC]*dT*dG*dT*dA*eG*e[5mC]*eA*eA*eA) [compound 328403] :: 20%

Next substance, please.
Given the entry 327905 (antisense e[5mC]*eA*eG*eA*e[5mC]*eT*e[5mC]*e[5mC]*eG*eG*eT*eG*eG*eA*eA*eT*eG*eA*eA*eG*eG*eA) [compound 327905] , report its measured % cells in cell cycle phase: G2/M.
20%
